# Lookup of reported protein stability index keyed by entry
B1: WEE1 (parent)
chain: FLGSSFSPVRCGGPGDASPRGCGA

Variants of: B1
Assay: protein stability index of a GFP-peptide fusion (GPS, HEK-293T) (PSI 1-6); higher = more stable;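 also: lentivirally expressed fusions sorted by FACS into six bins by GFP to DsRed ratio, PSI derived from sequencing read proportions per bin multiplied by bin number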
Details: c terminus: a fixed tail appended

// worked examples, protein stability index included
FEGSSFSPVRCGGPGDASPRGCGA :: 3.41
FLGSSFSPVRIGGPGDASPRGCGA :: 2.12
FLGSSFSPVDCGGPGDASPRGCGA :: 2.68
VLGSSFSPVRCGGPGDASPRGCGA :: 3.77
FQGSSFSPVRCGGPGDASPRGCGA :: 1.85

Ask: Would you kindly share the measured protein stability index for `FLGSSFTPVRCGGPGDASPRGCGA` ?
Result: 2.9
